# assayed_target: human 11β-HSD1 (Homo sapiens, UniProt P28845)
# Sequence (P28845 whole entry): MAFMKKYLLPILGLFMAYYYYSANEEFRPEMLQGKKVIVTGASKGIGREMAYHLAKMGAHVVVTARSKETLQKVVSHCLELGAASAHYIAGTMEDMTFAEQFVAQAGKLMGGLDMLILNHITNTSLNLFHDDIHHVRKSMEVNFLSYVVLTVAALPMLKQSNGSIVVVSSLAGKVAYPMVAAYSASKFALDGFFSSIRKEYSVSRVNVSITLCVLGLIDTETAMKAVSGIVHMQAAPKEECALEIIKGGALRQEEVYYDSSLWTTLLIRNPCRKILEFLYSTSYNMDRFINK
# test_protocol: biochemical
# assay_setup: Biological Test Example 2 IC50 Range, microsomes from CHO cells overexpressing human 11β-HSD1, SPA
Listed here are compounds together with their documented IC50.

Observe how each entry below is paired with its result.
>>> test_value("O=C(NC1CC1)c1cc(Cl)cnc1N[C@@H]1CCN(C(=O)O[C@H]2C3CC4CC2C[C@](O)(C4)C3)C1 [Example 101]")
"< 100 nM"
>>> test_value("NC(=O)C12CC3CC(C1)C(OC(=O)N1CC[C@@H](NC(=O)OCc4ccccc4)C1)C(C3)C2 (single isomer, unassigned) [Example 25 Isomer 1]")
"> 100 nM"
>>> test_value("N#Cc1cccnc1N[C@@H]1CCN(C(=O)O[C@H]2C3CC4CC2C[C@](O)(C4)C3)C1 [Example 80]")
"< 100 nM"

Given the entry NC(=O)[C@]12CC3CC(C1)[C@@H](OC(=O)N1CC[C@@H](Nc4nnc(C(F)(F)F)s4)C1)C(C3)C2 [Example 42] , what IC50 was observed with human 11β-HSD1 (Homo sapiens, UniProt P28845)?
< 100 nM

Given the entry CNC(=O)C12CC3CC(C1)C(OC(=O)N1CC[C@@H](Nc4ccc(C#N)cn4)C1)C(C3)C2 (single isomer, unassigned) [Example 114 Isomer 1] , what IC50 was observed with human 11β-HSD1 (Homo sapiens, UniProt P28845)?
> 100 nM

Given the entry CC1(NC(=O)OC(C)(C)C)CCN(C(=O)OC2C3CC4CC2CC(C(N)=O)(C4)C3)C1 (single isomer, unassigned) [Example 22 Isomer 2.1] , what IC50 was observed with human 11β-HSD1 (Homo sapiens, UniProt P28845)?
< 100 nM

Given the entry COC(=O)c1cnc(N[C@@H]2CCN(C(=O)O[C@H]3C4CC5CC3C[C@](O)(C5)C4)C2)nc1 [Example 107] , what IC50 was observed with human 11β-HSD1 (Homo sapiens, UniProt P28845)?
< 100 nM

Given the entry CC(C)COC(=O)NC1CCN(C(=O)OC2C3CC4CC2CC(C(N)=O)(C4)C3)C1 (single isomer, unassigned) [Example 18 Isomer 1] , what IC50 was observed with human 11β-HSD1 (Homo sapiens, UniProt P28845)?
> 100 nM

Given the entry CC(C)OC(=O)N[C@@H]1CCN(C(=O)OC2C3CC4CC2CC(C(N)=O)(C4)C3)C1 (single isomer, unassigned) [Example 24 Isomer 2] , what IC50 was observed with human 11β-HSD1 (Homo sapiens, UniProt P28845)?
< 100 nM

Given the entry O=C(O[C@H]1C2CC3CC1C[C@](O)(C3)C2)N1CC[C@@H](Nc2ncc(Cl)cc2[N+](=O)[O-])C1 [Example 93] , what IC50 was observed with human 11β-HSD1 (Homo sapiens, UniProt P28845)?
< 100 nM

Given the entry N#Cc1cccnc1NC1CCN(C(=O)O[C@H]2C3CC4CC2C[C@](C(N)=O)(C4)C3)CC1 [Example 68] , what IC50 was observed with human 11β-HSD1 (Homo sapiens, UniProt P28845)?
< 100 nM

Given the entry N#Cc1ccc(N2CCC3CN(C(=O)O[C@H]4C5CC6CC4C[C@](C(N)=O)(C6)C5)CC32)nc1 (stereo partly drawn) [Example 76] , what IC50 was observed with human 11β-HSD1 (Homo sapiens, UniProt P28845)?
< 100 nM
